These data points were gathered from ChEMBL document CHEMBL1157571.

This listing pairs compounds with measured log10(Ki).
# Tested target: Prothrombin (Homo sapiens, UniProt P00734)
# log10 transformed; quantity=Ki; unit=nM

Please supply the value of reported log10(Ki) for the item `N=C(N)c1ccc(CNC(=O)[C@@H]2CCCN2C(=O)CC2CCCC2)cc1` 3.21

Read the entry `CC(C)(C)CC(=O)N1CCC[C@H]1C(=O)NCc1cccc(Cl)c1` and write its reported log10(Ki). 5.68

Quickly give me recorded log10(Ki) for `CC(C)(C)C[C@@H](N)C(=O)N1CCC[C@H]1C(=O)NCc1ccc(C(=N)N)cc1` 1.04

Give the value of log10(Ki) reported for the following: `C[C@@H](N)C(=O)N1CCC[C@H]1C(=O)NCc1cccc(Cl)c1` 4.52

Using the record for `CC[C@@H](N)C(=O)N1CCC[C@H]1C(=O)NCc1ccc(C(=N)N)cc1` , state its measured log10(Ki). 2.26

Name the recorded log10(Ki) of the item `N=C(N)c1ccc(CNC(=O)[C@@H]2CCCN2C(=O)CC2CCCCC2)cc1` in your answer. 3.56

Give recorded log10(Ki). `CC(C)(C)CC(=O)N1CCC[C@H]1C(=O)NCc1ccc(C(=N)N)cc1` 2.97

For `CC(C)[C@@H](N)C(=O)N1CCC[C@H]1C(=O)NCc1cccc(Cl)c1` , write its log10(Ki). 3.40

Please look at this compound and report its log10(Ki): `CC(C)(C)C[C@@H](N)C(=O)N1CCC[C@H]1C(=O)NCc1cccc(Cl)c1` 2.61

Assign log10(Ki) to the following record: `CC(C)CC(=O)N1CCC[C@H]1C(=O)NCc1ccc(C(=N)N)cc1` 3.58
